So I've got a bunch of sequences here, and I need their protein stability index values.
test: protein stability index of a GFP-peptide fusion (GPS, HEK-293T) (PSI 1-6); higher = more stable; details: treatment: MLN4924 1 uM, 8 h; c terminus: a fixed tail appended;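 further: 24-mer peptide tiles fused after GFP, lentivirally expressed, FACS-sorted into six equal bins by GFP/DsRed ratio, decoded by Illumina sequencing, PSI is the read-weighted mean bin number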

Here is how some sequences turned out for protein stability index.
                        sequence_text           endpoint_label  observed_measurement
0    DVTCNEFFFDRNPGAFGTILTFLR [KCNG1]  protein stability index                  2.65
1     GDVHTVRKMLEQGYSPNGRDANGW [ASB7]  protein stability index                  3.71
2    MSQTVQRMLVAASWACAFTNALTH [OR3A1]  protein stability index                  3.31
3    PPNTRVLRVLPNLPCVVQEGAIVM [PYCR3]  protein stability index                  2.39
4  IGSSVMAASLVTMGIVNLNIHMNF [SLC2A12]  protein stability index                  3.13
5   AKKFMWRDSFMRHRGHCERRHRLG [ZBTB22]  protein stability index                   3.1

Let us examine a further case.
Request: Could you tell me which protein stability index is on file for GISVPSGLFVPSLLCGAAFGRLVA [CLCN6] ?
Response: 2.51
